Hi there, I'd appreciate the recorded residual activity for every entry that follows.
molecular target: PRKCZ (human) (UniProt Q05513); assay: radiometric filter-binding kinase assay, Kinase HotSpot; details: compound 0.5 µM; ATP 10 µM
Sequence (Q05513 whole entry, looked up): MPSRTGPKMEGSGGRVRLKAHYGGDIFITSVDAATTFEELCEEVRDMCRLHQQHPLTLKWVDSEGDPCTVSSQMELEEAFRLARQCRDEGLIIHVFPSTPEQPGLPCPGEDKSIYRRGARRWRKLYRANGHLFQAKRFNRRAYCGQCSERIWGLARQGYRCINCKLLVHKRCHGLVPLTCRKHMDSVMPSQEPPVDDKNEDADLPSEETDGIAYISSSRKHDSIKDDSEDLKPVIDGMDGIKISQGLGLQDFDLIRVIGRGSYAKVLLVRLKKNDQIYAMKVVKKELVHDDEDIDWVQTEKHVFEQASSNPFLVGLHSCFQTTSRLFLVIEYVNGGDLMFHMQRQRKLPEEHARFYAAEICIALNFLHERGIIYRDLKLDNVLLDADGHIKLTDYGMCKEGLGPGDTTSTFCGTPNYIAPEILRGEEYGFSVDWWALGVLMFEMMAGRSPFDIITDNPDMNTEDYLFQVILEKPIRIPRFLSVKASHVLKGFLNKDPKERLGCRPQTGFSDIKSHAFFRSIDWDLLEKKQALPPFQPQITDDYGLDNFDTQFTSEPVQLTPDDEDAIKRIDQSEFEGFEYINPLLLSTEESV
One number for each entry, in %.

Reference set, count: 5
{"columns": ["smiles structure", "residual activity / %"],
 "data": [
  ["COc1ccc2c(c1)/C(=C/c1cnc[nH]1)C(O)=N2", 107],
  ["O=C1c2ccccc2-c2nc3nnnn3nc21", 99.1],
  ["CN(C)c1ccc(/C=C2\\C(=O)Nc3ccccc32)cc1", 112],
  ["CN(C)S(=O)(=O)c1ccc2c(c1)/C(=C/c1cc3c([nH]1)CCCC3)C(=O)N2", 98.9],
  ["CO[C@@H]1[C@H](N(C)C(=O)c2ccccc2)C[C@H]2O[C@]1(C)n1c3ccccc3c3c4c(c5c6ccccc6n2c5c31)C(=O)NC4", 98.6]
]}

Parameters: items (list). Returns: residual activity for each item.
1. c1ccc2c(-c3ccncc3)c[nH]c2c1
2. Cc1cncc2cccc(S(=O)(=O)N3CCCN(C(=O)CN)C[C@H]3C)c12
3. CS(=O)(=O)CCNCc1ccc(-c2ccc3ncnc(Nc4ccc(OCc5cccc(F)c5)c(Cl)c4)c3c2)o1
4. Cn1c2ccccc2c2c3c(c4c5ccccc5n(CCC#N)c4c21)CNC3=O
5. COc1cc2ncnc(Nc3ccc(Oc4ccccc4)cc3)c2cc1OC
6. O=C1NC(=O)c2c1c1c3ccccc3[nH]c1n1cncc21

1: 98.3; 2: 91.2; 3: 79.7; 4: 87; 5: 100; 6: 84.8

Dear reader, for each entry below, please note its residual activity.
1. CC(C)(C)c1cc(C=C(C#N)C#N)cc(Br)c1O
2. CN(C)CCCn1cc(C2=C(c3c[nH]c4ccccc34)C(=O)NC2=O)c2ccccc21
3. Cc1cccc(-c2nc(C(C)(C)C)[nH]c2-c2ccc3c(c2)OCO3)n1
4. COc1ccc(S(=O)(=O)N(CCO)c2ccccc2CN(C)C/C=C/c2ccc(Cl)cc2)cc1
5. COc1ccc(Cl)cc1NC(=O)Nc1cc(C)nc2ccccc12
6. N#C/C(=C\c1ccc(O)c(O)c1)C(=O)NCc1ccccc1
7. COc1ccc(C(=O)Nc2sc3c(c2C(N)=O)CCCC3)cc1OC

102
57.2
87.9
100
99.4
104
89.3

Return reported residual activity values for all items listed beneath this line.
1. C[C@@H]1CCN(C(=O)CC#N)C[C@@H]1N(C)c1ncnc2[nH]ccc12
2. Fc1ccc(-c2nc3n(c2-c2ccncc2)CCS3)cc1
3. COc1cc2ncnc(Nc3ccc(OCc4ccccc4)cc3)c2cc1OC
4. O=C1C(Cl)=C(N2C(=O)CCC2=O)C(=O)c2ccccc21

1. 91.7
2. 90.6
3. 113
4. 114

###

target: PAK6 (human) (UniProt Q9NQU5); assay: radiometric filter-binding kinase assay, Kinase HotSpot; conditions: compound 0.5 µM; ATP 10 µM
Sequence (Q9NQU5 whole entry, looked up): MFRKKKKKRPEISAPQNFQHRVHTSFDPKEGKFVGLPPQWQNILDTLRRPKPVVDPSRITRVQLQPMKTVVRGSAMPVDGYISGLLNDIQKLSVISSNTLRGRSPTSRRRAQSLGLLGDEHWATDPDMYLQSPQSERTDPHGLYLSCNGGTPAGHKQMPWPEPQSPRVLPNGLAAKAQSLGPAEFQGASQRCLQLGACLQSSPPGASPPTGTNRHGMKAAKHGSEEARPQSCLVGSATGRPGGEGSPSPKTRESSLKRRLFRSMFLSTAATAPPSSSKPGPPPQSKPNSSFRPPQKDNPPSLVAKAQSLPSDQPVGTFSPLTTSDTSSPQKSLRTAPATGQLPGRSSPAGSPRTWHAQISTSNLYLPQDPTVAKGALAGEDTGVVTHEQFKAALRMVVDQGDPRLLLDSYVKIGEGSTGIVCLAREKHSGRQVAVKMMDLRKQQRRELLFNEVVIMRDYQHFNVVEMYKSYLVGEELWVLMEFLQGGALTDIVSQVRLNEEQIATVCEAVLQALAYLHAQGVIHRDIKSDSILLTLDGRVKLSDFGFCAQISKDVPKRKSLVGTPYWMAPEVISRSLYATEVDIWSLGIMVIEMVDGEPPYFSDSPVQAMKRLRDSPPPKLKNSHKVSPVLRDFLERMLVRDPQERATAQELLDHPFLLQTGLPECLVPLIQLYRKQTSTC
observation type: residual activity (%)
Give bare numbers, in %.

Recorded results for 8 compounds are shown here.
{"columns": ["smiles structure", "observation type", "result unit", "measured number"],
 "data": [
  ["Fc1ccc(-c2nc3n(c2-c2ccncc2)CCS3)cc1", "residual activity", "%", 106],
  ["Cn1c2ccccc2c2c3c(c4c5ccccc5n(CCC#N)c4c21)CNC3=O", "residual activity", "%", 20.4],
  ["COc1cc(Nc2c(C#N)cnc3cc(OCCCN4CCN(C)CC4)c(OC)cc23)c(Cl)cc1Cl", "residual activity", "%", 105],
  ["CN(C)c1ccc(/C=C2\\C(=O)Nc3ccccc32)cc1", "residual activity", "%", 96.9],
  ["N#Cc1c[nH]c2c[nH]/c(=N\\Cc3cccnc3)cc2/c1=N\\c1ccc(F)c(Cl)c1", "residual activity", "%", 104],
  ["COc1ccc(S(=O)(=O)N(CCO)c2ccccc2CN(C)C/C=C/c2ccc(Cl)cc2)cc1", "residual activity", "%", 101],
  ["c1ccc2c(-c3ccncc3)c[nH]c2c1", "residual activity", "%", 104],
  ["N#C/C(=C\\c1ccc(O)c(O)c1)C(=O)NCc1ccccc1", "residual activity", "%", 99.4]
]}

Take each entry in turn and give its residual activity.
1. COc1ccc2c(c1)c(C1=C(c3c[nH]c4ccccc34)C(=O)NC1=O)cn2CCCN(C)C
2. COc1ccc(Cl)cc1NC(=O)Nc1cc(C)nc2ccccc12

1. 70.4
2. 96.5

For each entry beneath this line, provide reported residual activity.
1. O=C1c2ccccc2-c2nc3nnnn3nc21
2. COc1ccc(C(=O)Nc2sc3c(c2C(N)=O)CCCC3)cc1OC
3. COc1ccc2c(c1)/C(=C/c1cnc[nH]1)C(O)=N2
4. NC(=O)c1cccc(-c2cc(Nc3ccc(OC(F)(F)F)cc3)ncn2)c1
5. Cc1nc(-c2ccccc2)c(-c2ccncc2)o1

1: 108; 2: 85.7; 3: 101; 4: 102; 5: 103

List residual activity for every entry below, keeping the order given.
1. CO[C@@H]1[C@H](N(C)C(=O)c2ccccc2)C[C@H]2O[C@]1(C)n1c3ccccc3c3c4c(c5c6ccccc6n2c5c31)C(=O)NC4
2. O=C1Nc2ccc(Br)cc2/C1=C\c1cc2c([nH]1)CCCC2
3. CN(C)CCCn1cc(C2=C(c3c[nH]c4ccccc34)C(=O)NC2=O)c2ccccc21
4. COc1cc2ncnc(Nc3ccc(Oc4ccccc4)cc3)c2cc1OC

[96.4, 89.8, 101, 109]

Would you mind giving residual activity for every compound in the list below?
1. C[C@@H]1CCN(C(=O)CC#N)C[C@@H]1N(C)c1ncnc2[nH]ccc12
2. CS(=O)(=O)CCNCc1ccc(-c2ccc3ncnc(Nc4ccc(OCc5cccc(F)c5)c(Cl)c4)c3c2)o1

[102, 106]

###

biological target: CHEK2 (human) (UniProt O96017); assay: radiometric filter-binding kinase assay, Kinase HotSpot; details: compound 0.5 µM; ATP 10 µM
Sequence (O96017 whole entry, looked up): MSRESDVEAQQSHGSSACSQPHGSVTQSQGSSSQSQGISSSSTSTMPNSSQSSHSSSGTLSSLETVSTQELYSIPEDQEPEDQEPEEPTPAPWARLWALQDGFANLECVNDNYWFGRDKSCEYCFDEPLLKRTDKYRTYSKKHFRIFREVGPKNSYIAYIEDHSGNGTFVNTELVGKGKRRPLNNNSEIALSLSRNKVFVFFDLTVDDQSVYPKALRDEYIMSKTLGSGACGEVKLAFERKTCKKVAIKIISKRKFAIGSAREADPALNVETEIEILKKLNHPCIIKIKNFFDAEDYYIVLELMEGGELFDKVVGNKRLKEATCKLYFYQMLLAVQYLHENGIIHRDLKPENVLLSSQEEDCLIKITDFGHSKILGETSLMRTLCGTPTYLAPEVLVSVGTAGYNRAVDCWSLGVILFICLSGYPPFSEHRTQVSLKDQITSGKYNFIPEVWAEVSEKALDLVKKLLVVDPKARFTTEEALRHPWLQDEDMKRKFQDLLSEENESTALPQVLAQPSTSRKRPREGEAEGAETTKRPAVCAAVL
observation type: residual activity

See these solved cases before continuing.
{"columns": ["smiles structure", "residual activity"],
 "data": [
  ["COc1cc(Nc2c(C#N)cnc3cc(OCCCN4CCN(C)CC4)c(OC)cc23)c(Cl)cc1Cl", "21.7%"],
  ["COc1cc2ncnc(Nc3ccc(Oc4ccccc4)cc3)c2cc1OC", "29.6%"],
  ["COc1ccc2c(c1)c(C1=C(c3c[nH]c4ccccc34)C(=O)NC1=O)cn2CCCN(C)C", "38.8%"],
  ["Cc1cncc2cccc(S(=O)(=O)N3CCCN(C(=O)CN)C[C@H]3C)c12", "96.2%"]
]}

`CN(C)S(=O)(=O)c1ccc2c(c1)/C(=C/c1cc3c([nH]1)CCCC3)C(=O)N2` has a reported residual activity of 46.1%

###

target: CHEK1 (human) (UniProt O14757); test: radiometric filter-binding kinase assay, Kinase HotSpot; details: compound 0.5 µM; ATP 10 µM
Sequence (O14757 whole entry, looked up): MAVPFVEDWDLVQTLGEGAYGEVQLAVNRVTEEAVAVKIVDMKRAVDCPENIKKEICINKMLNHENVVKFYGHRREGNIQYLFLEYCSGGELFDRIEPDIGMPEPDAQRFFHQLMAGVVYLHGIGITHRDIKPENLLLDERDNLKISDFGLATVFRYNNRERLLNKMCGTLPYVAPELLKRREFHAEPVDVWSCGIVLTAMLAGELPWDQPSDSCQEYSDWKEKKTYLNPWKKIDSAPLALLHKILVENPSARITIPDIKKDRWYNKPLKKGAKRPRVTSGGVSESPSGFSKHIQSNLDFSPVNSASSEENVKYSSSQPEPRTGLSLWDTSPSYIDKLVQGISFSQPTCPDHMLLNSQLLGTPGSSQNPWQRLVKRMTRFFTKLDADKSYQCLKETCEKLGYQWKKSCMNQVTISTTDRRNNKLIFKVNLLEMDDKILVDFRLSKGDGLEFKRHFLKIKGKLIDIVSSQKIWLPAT
Note to self: use condition met only for residual activity readings below 90%; a reading exactly at 90% still gets condition not met.

These recorded examples may help you get a feel for the data.
{"columns": ["smiles structure", "assigned label"],
 "data": [
  ["CO[C@@H]1[C@H](N(C)C(=O)c2ccccc2)C[C@H]2O[C@]1(C)n1c3ccccc3c3c4c(c5c6ccccc6n2c5c31)C(=O)NC4", "condition met"],
  ["O=C1NC(=O)c2c1c1c3ccccc3[nH]c1n1cncc21", "condition met"],
  ["CC(C)(C)c1cc(C=C(C#N)C#N)cc(Br)c1O", "condition not met"],
  ["O=C1C(Cl)=C(N2C(=O)CCC2=O)C(=O)c2ccccc21", "condition not met"],
  ["COc1cc(Nc2c(C#N)cnc3cc(OCCCN4CCN(C)CC4)c(OC)cc23)c(Cl)cc1Cl", "condition met"]
]}

A record lists `O=C(c1cc2cc(O)ccc2[nH]1)c1cc2cc(O)ccc2[nH]1` . Is its residual activity below 90%? condition met

Field: below-cutoff. Rule: recorded residual activity strictly less than 90%. Subject: `CCCCc1c(-c2ccc(OC)cc2)[nH]c2nccnc12` condition not met

Is residual activity of `CN(C)c1ccc(/C=C2\C(=O)Nc3ccccc32)cc1` strictly below 90%? condition not met

###

Give residual activity for every item shown.
target: TEC (human) (UniProt P42680); experiment: radiometric filter-binding kinase assay, Kinase HotSpot; details: compound 0.5 µM; ATP 10 µM
Sequence (P42680 whole entry, looked up): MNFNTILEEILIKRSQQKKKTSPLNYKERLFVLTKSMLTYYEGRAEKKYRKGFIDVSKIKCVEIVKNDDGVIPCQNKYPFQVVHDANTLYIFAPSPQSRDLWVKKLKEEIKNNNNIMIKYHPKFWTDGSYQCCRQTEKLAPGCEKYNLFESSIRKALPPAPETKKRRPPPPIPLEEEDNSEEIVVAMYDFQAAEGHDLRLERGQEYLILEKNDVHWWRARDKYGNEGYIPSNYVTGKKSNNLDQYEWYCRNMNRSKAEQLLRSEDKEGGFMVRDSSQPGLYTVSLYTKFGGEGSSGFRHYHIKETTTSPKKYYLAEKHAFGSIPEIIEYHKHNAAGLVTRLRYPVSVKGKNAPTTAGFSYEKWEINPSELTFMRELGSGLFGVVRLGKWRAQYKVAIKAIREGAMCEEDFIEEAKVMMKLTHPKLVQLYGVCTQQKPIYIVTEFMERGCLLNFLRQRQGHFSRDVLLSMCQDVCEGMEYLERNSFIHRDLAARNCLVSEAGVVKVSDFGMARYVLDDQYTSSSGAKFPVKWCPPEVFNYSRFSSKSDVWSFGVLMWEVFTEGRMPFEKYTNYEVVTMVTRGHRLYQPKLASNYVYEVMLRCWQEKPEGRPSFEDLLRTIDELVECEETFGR
Numbers only, in %.

{"columns": ["smiles structure", "result unit", "residual activity"],
 "data": [
  ["Ic1cccc(CSc2nnc(-c3ccncc3)o2)c1", "%", 106],
  ["CO[C@@H]1[C@H](N(C)C(=O)c2ccccc2)C[C@H]2O[C@]1(C)n1c3ccccc3c3c4c(c5c6ccccc6n2c5c31)C(=O)NC4", "%", 106],
  ["Cc1cccc(-c2nc(C(C)(C)C)[nH]c2-c2ccc3c(c2)OCO3)n1", "%", 123],
  ["COc1ccc2c(c1)/C(=C/c1cnc[nH]1)C(O)=N2", "%", 91.6]
]}

The compound `CCCCc1c(-c2ccc(OC)cc2)[nH]c2nccnc12` showed residual activity equal to 134

Each recorded value in this set is attributed to the kinase profiling compilation of Christmann-Franck et al. (2016).
